- TARGET ENTITY: glucocorticoid receptors (endogenous) in SW1353/MMTV-5 cells (Homo sapiens, UniProt P04150)
- Construct: contains endogenous glucocorticoid receptors; endogenous in cells
- Sequence (P04150 whole entry): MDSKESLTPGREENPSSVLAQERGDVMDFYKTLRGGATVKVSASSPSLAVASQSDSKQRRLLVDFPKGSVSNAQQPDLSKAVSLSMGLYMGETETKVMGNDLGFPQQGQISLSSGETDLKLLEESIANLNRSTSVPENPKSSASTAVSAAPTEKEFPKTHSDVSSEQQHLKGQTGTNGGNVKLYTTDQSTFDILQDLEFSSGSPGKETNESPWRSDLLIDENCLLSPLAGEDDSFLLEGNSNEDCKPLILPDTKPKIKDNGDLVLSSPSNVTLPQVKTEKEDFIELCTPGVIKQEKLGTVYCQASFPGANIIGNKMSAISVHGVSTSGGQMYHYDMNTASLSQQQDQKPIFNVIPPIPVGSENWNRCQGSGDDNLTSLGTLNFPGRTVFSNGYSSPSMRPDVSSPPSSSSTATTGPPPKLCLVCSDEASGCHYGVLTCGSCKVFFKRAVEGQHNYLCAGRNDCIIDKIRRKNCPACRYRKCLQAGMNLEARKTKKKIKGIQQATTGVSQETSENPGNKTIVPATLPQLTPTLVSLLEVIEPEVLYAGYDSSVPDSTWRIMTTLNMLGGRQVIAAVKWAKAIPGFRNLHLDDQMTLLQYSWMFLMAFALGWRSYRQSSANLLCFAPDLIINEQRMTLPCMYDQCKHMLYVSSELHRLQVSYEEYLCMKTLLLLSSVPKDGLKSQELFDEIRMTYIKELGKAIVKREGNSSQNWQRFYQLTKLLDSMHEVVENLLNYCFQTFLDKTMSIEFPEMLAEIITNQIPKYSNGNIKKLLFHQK
- EXPERIMENT SUMMARY: GR functional assay using SW1353/MMTV-5 cells (MMTV-GRE luciferase reporter)
ENDPOINT LABEL: Ki

INSERT INTO results (smiles_data, data_value) VALUES
  ('O=c1[nH]c(=O)c(Cc2ccccc2)c([C@H]2CC[C@H](c3ccccc3)CC2)[nH]1', '< 50 nM'),
  ('O=c1[nH]c(=O)c(Cc2ncccn2)c([C@H]2CC[C@H](c3ccccc3)CC2)[nH]1', '> 100 nM'),
  ('O=c1[nH]c(=O)c(Cc2ccc(F)c(F)c2)c([C@H]2CC[C@H](c3ccccc3)CC2)[nH]1', '50 to 100 nM'),
  ('O=c1[nH]c(=O)c(Cc2ccc(F)cc2Cl)c([C@H]2CC[C@H](c3ccccc3)CC2)[nH]1', '< 50 nM'),
  ('O=c1[nH]c(=O)c(Cc2ccc(F)c(Cl)c2)c([C@H]2CC[C@H](c3ccccc3)CC2)[nH]1', '< 50 nM');

Task item: Provide Ki value for the following molecule: `O=c1[nH]c(=O)c(Cc2ccc(Cl)cc2Cl)c([C@H]2CC[C@H](c3ccccc3)CC2)[nH]1`
Reply: < 50 nM

Task item: Provide Ki value for the following molecule: `Cc1ccnc(Cc2c(=O)[nH]c(=O)[nH]c2[C@H]2CC[C@H](c3ccccc3)CC2)c1`
Reply: < 50 nM

* * *

- TARGET ENTITY: glucocorticoid receptors (endogenous) in SW1353/MMTV-5 cells (Homo sapiens)
- Construct: contains endogenous glucocorticoid receptors; endogenous in cells
- EXPERIMENT SUMMARY: GR functional assay using SW1353/MMTV-5 cells (MMTV-GRE luciferase reporter)
Entries and their Ki values follow.

Solved cases below.
INSERT INTO results (compound, target_entity, data_value) VALUES
  ('O=c1[nH]c(C2=CCC(c3ccccc3)CC2)c(Cc2ccccc2)c(=O)[nH]1 (stereo not drawn)', 'glucocorticoid receptors (endogenous) in SW1353/MMTV-5 cells (Homo sapiens)', '> 100 nM'),
  ('Cc1cccc(Cc2c(=O)[nH]c(=S)[nH]c2[C@H]2CC[C@H](c3ccccc3)CC2)c1 [Compound 12g]', 'glucocorticoid receptors (endogenous) in SW1353/MMTV-5 cells (Homo sapiens)', '> 100 nM'),
  ('Cn1c(=O)[nH]c([C@H]2CC[C@H](c3ccccc3)CC2)c(Cc2ccccc2)c1=O [Compound 13h]', 'glucocorticoid receptors (endogenous) in SW1353/MMTV-5 cells (Homo sapiens)', '50 to 100 nM'),
  ('O=c1[nH]c([C@H]2CC[C@H](c3ccccc3)CC2)c(Cc2cccc(Cl)c2Cl)c(=O)n1CCCN1CCOCC1 [Compound 13c]', 'glucocorticoid receptors (endogenous) in SW1353/MMTV-5 cells (Homo sapiens)', '> 100 nM'),
  ('Cc1cc(Cc2c(=O)[nH]c(=O)[nH]c2[C@H]2CC[C@H](c3ccccc3)CC2)ccn1', 'glucocorticoid receptors (endogenous) in SW1353/MMTV-5 cells (Homo sapiens)', '> 100 nM');

Task item: Please tell me the measured Ki for `O=c1[nH]c(=O)c(Cc2nccs2)c([C@H]2CC[C@H](c3ccccc3)CC2)[nH]1` ; system: glucocorticoid receptors (endogenous) in SW1353/MMTV-5 cells (Homo sapiens).
Reply: > 100 nM

Task item: Please tell me the measured Ki for O=c1[nH]c([C@H]2CC[C@H](c3ccccc3)CC2)c(Cc2cccc(C(F)(F)F)c2)c(=O)n1CCO [Compound 13f] ; system: glucocorticoid receptors (endogenous) in SW1353/MMTV-5 cells (Homo sapiens).
Reply: > 100 nM

Task item: Please tell me the measured Ki for `O=c1[nH]c(=O)c(Cc2ccccc2)c([C@H]2CC[C@@H](c3ccccc3)CC2)[nH]1` ; system: glucocorticoid receptors (endogenous) in SW1353/MMTV-5 cells (Homo sapiens).
Reply: > 100 nM

Task item: Please tell me the measured Ki for `O=c1[nH]c(=O)c(Cc2ncccc2Cl)c([C@H]2CC[C@H](c3ccccc3)CC2)[nH]1` ; system: glucocorticoid receptors (endogenous) in SW1353/MMTV-5 cells (Homo sapiens).
Reply: > 100 nM

Task item: Please tell me the measured Ki for `O=c1[nH]c(=O)c(Cc2cccc(C(F)(F)F)c2)c([C@H]2CC[C@H](c3ccccc3)CC2)[nH]1` ; system: glucocorticoid receptors (endogenous) in SW1353/MMTV-5 cells (Homo sapiens).
Reply: < 50 nM

* * *

- TARGET ENTITY: Human Recombinant Glucocorticoid Receptor (Homo sapiens, UniProt P04150)
- Construct: This GR was a full-length steroid hormone receptor; host or cells: recombinant baculovirus-infected insect cells
- EXPERIMENT SUMMARY: Glucocorticoid receptor binding displacement assay with 3H-dexamethasone
- EXPERIMENTAL PARAMETERS: displacement of 2.5 nM 3H-dexamethasone, 2.5 hrs at 4° C.; Ki from IC50 by Cheng-Prusoff; read-out: GR Binding Ki
ENDPOINT LABEL: Ki

Solved cases below.
INSERT INTO measurements (compound, data_value) VALUES
  ('Cc1ccccc1Cc1c(C2=CCC(c3ccccc3)CC2)[nH]c(=O)[nH]c1=O (stereo not drawn)', '> 10 nM'),
  ('Nc1cccc(Cc2c(=O)[nH]c(=O)[nH]c2[C@H]2CC[C@H](c3ccccc3)CC2)n1', '> 10 nM'),
  ('O=c1[nH]c([C@H]2CC[C@H](c3ccccc3)CC2)c(Cc2cccc(Cl)c2Cl)c(=O)n1CCCN1CCOCC1 [Compound 13c]', '> 10 nM');

Task item: Please tell me the measured Ki for `O=c1[nH]c(=O)c(Cc2cc(Cl)ccc2Cl)c([C@H]2CC[C@H](c3ccccc3)CC2)[nH]1` ; system: Human Recombinant Glucocorticoid Receptor (Homo sapiens, UniProt P04150).
Reply: < 5 nM

Task item: Please tell me the measured Ki for `O=c1[nH]c(=O)c(Cc2ncccn2)c([C@H]2CC[C@H](c3ccccc3)CC2)[nH]1` ; system: Human Recombinant Glucocorticoid Receptor (Homo sapiens, UniProt P04150).
Reply: > 10 nM

* * *

- TARGET ENTITY: Human Recombinant Glucocorticoid Receptor (Homo sapiens)
- Construct: This GR was a full-length steroid hormone receptor
- EXPERIMENT SUMMARY: Glucocorticoid receptor binding displacement assay with 3H-dexamethasone
- EXPERIMENTAL PARAMETERS: displacement of 2.5 nM 3H-dexamethasone, 2.5 hrs at 4° C.; Ki from IC50 by Cheng-Prusoff; read-out: GR Binding Ki
pKi: −log10 of the molar value.
ENDPOINT LABEL: pKi

Solved cases below.
INSERT INTO assay_data (molecule, data_value) VALUES
  ('O=c1[nH]c(=O)c(Cc2cccc(F)c2F)c([C@H]2CC[C@H](c3ccccc3)CC2)[nH]1 [Compound 3z]', '> 8.30'),
  ('O=c1[nH]c(=O)c(Cc2c(Cl)cccc2Cl)c([C@H]2CC[C@H](c3ccccc3)CC2)[nH]1 [Compound 3e]', '8.00 to 8.30'),
  ('Cc1cccc(Cc2c(=O)[nH]c(=O)[nH]c2[C@H]2CC[C@H](c3ccccc3)CC2)c1 [Compound 3h]', '> 8.30');

Task item: Provide pKi value for the following molecule: O=c1[nH]c(=O)c(Cc2nccs2)c([C@H]2CC[C@H](c3ccccc3)CC2)[nH]1 [Compound 3o]
Reply: < 8.00

Task item: Provide pKi value for the following molecule: O=c1[nH]c(=O)c(Cc2ccccn2)c([C@H]2CC[C@H](c3ccccc3)CC2)[nH]1 [Compound 3p]
Reply: < 8.00

Task item: Provide pKi value for the following molecule: O=c1[nH]c(=O)c(Cc2cccc(C(F)(F)F)n2)c([C@H]2CC[C@H](c3ccccc3)CC2)[nH]1 [Compound 3l]
Reply: 8.00 to 8.30

Task item: Provide pKi value for the following molecule: Cc1csc(Cc2c(=O)[nH]c(=O)[nH]c2[C@H]2CC[C@H](c3ccccc3)CC2)n1 [Compound 3t]
Reply: < 8.00

* * *

- TARGET ENTITY: Human Recombinant Glucocorticoid Receptor (Homo sapiens, UniProt P04150)
- Construct: This GR was a full-length steroid hormone receptor
- EXPERIMENT SUMMARY: Glucocorticoid receptor binding displacement assay with 3H-dexamethasone
- EXPERIMENTAL PARAMETERS: displacement of 2.5 nM 3H-dexamethasone, 2.5 hrs at 4° C.; Ki from IC50 by Cheng-Prusoff; read-out: GR Binding Ki
ENDPOINT LABEL: Ki

INSERT INTO assay_data (compound, data_value) VALUES
  ('O=c1[nH]c(=O)c(Cc2ccccc2Cl)c([C@H]2CC[C@H](c3ccccc3)CC2)[nH]1 [Compound 3c]', '< 5 nM'),
  ('O=c1[nH]c(=O)c(Cc2ccc(F)c(Cl)c2)c([C@H]2CC[C@H](c3ccccc3)CC2)[nH]1 [Compound 3aa]', '> 10 nM'),
  ('Cc1cccc(Cc2c(=O)[nH]c(=O)[nH]c2[C@H]2CC[C@H](c3ccccc3)CC2)n1 [Compound 3j]', '> 10 nM'),
  ('O=c1[nH]c(=O)c(Cc2ccccc2)c([C@H]2CC[C@@H](c3ccccc3)CC2)[nH]1 [Compound 3bb]', '> 10 nM');

Task item: Provide Ki value for the following compound: COc1ccccc1Cc1c(=O)[nH]c(=O)[nH]c1[C@H]1CC[C@H](c2ccccc2)CC1 [Compound 3u]
Reply: < 5 nM

Task item: Provide Ki value for the following compound: CN(C)c1cccc(Cc2c(=O)[nH]c(=O)[nH]c2[C@H]2CC[C@H](c3ccccc3)CC2)n1 [Compound 3v]
Reply: 5 to 10 nM

Task item: Provide Ki value for the following compound: CCc1ccccc1Cc1c(=O)[nH]c(=O)[nH]c1[C@H]1CC[C@H](c2ccccc2)CC1 [Compound 3s]
Reply: 5 to 10 nM

Task item: Provide Ki value for the following compound: Cn1c(=O)[nH]c([C@H]2CC[C@H](c3ccccc3)CC2)c(Cc2cccc(C(F)(F)F)c2)c1=O [Compound 13d]
Reply: 5 to 10 nM

Task item: Provide Ki value for the following compound: Cn1c(=O)[nH]c([C@H]2CC[C@H](c3ccccc3)CC2)c(Cc2ccccc2)c1=O [Compound 13h]
Reply: > 10 nM

Task item: Provide Ki value for the following compound: O=c1[nH]c(=O)c(Cc2ccc(Cl)cc2Cl)c([C@H]2CC[C@H](c3ccccc3)CC2)[nH]1 [Compound 3f]
Reply: 5 to 10 nM

Task item: Provide Ki value for the following compound: O=c1[nH]c(=O)c(Cc2cccc(Cl)c2Cl)c([C@H]2CC[C@H](c3ccccc3)CC2)[nH]1 [Compound 3d]
Reply: < 5 nM

Task item: Provide Ki value for the following compound: O=c1[nH]c(=O)c(Cc2ccc(F)cc2F)c([C@H]2CC[C@H](c3ccccc3)CC2)[nH]1 [Compound 3y]
Reply: 5 to 10 nM

Task item: Provide Ki value for the following compound: Cc1cccc(Cc2c(=O)n(CCN(C)C)c(=O)[nH]c2[C@H]2CC[C@H](c3ccccc3)CC2)c1 [Compound 13b]
Reply: > 10 nM

Task item: Provide Ki value for the following compound: O=c1[nH]c(=O)c(Cc2ccc(F)c(F)c2)c([C@H]2CC[C@H](c3ccccc3)CC2)[nH]1 [Compound 3w]
Reply: > 10 nM

Task item: Provide Ki value for the following compound: Cc1cccc(Cc2c(C3=CCC(c4ccccc4)CC3)[nH]c(=O)[nH]c2=O)c1 (stereo not drawn) [Compound 2b]
Reply: 5 to 10 nM

Cited source for all entries: patent US8906917B2
